Entries and their measured MIC follow.
# Tested on: Trichophyton gallinae
The reply should be a number in µg/mL, with the unit left off.

Below, each entry is followed by its recorded MIC result.
compound | test.target | unit.abbreviation | experimental.result
NCc1[nH]c2cc(Br)c(Cl)cc2c1-c1ccccc1 [D] | Trichophyton gallinae | µg/mL | 75
NCc1[nH]c2ccc(Cl)cc2c1-c1ccccc1F [A] | Trichophyton gallinae | µg/mL | 7.5
NCc1[nH]c2ccc(Cl)cc2c1-c1ccccc1 [C] | Trichophyton gallinae | µg/mL | 37.5

Name the recorded MIC of the compound listed here: NCc1[nH]c2ccc(Cl)cc2c1-c1c(F)cccc1F [B]
7.5

In one line, give reported MIC of the entry NCc1[nH]c2ccc(Cl)cc2c1-c1ccc(Cl)cc1Cl [E] .
17.5

----------
Examples of compounds with documented MIC follow.
# System: Trichophyton schoenleinii
# assay.info: In vitro antifungal activity, dilutions in Sabouraud's Dextrose Broth (Table IV)
# Format: cell-based
# applied.conditions: 96 h, strain not given, after 96 hours
Give just the numeric value; µg/mL need not be written.

compound | unit.abbreviation | experimental.result
NCc1[nH]c2ccc(Cl)cc2c1-c1ccccc1 | µg/mL | 17.5
NCc1[nH]c2cc(Br)c(Cl)cc2c1-c1ccccc1 | µg/mL | 7.5
NCc1[nH]c2ccc(Cl)cc2c1-c1c(F)cccc1F | µg/mL | 17.5
NCc1[nH]c2ccc(Cl)cc2c1-c1ccccc1F | µg/mL | 17.5

With those in mind, consider the next compound.
Fill in MIC for record `NCc1[nH]c2ccc(Cl)cc2c1-c1ccc(Cl)cc1Cl`
3

----------
# Tested on: Escherichia coli
# assay.info: In vitro antibacterial activity, dilution in Mueller Hinton Agar (Table I)
# Assay type: cell-based
# applied.conditions: pH 7.4, strain 4195, Mueller Hinton Agar pH 7.4
# MIC annotations
Only the number, expressed in µg/mL, is required.

Previously resolved entries follow.
compound | unit.abbreviation | MIC
NCc1[nH]c2ccc(Cl)cc2c1-c1ccccc1 | µg/mL | 3
NCc1[nH]c2ccc(Cl)cc2c1-c1ccccc1F | µg/mL | 3
NCc1[nH]c2ccc(Cl)cc2c1-c1c(F)cccc1F | µg/mL | 7.5

Give a short answer stating reported MIC for `NCc1[nH]c2cc(Br)c(Cl)cc2c1-c1ccccc1` .
3

Report MIC for `NCc1[nH]c2ccc(Cl)cc2c1-c1ccc(Cl)cc1Cl`
3

----------
# System: Trichophyton megninii
measure: MIC (µg/mL)
The reply should be a number in µg/mL, with the unit left off.

molecule | MIC, µg/mL
NCc1[nH]c2ccc(Cl)cc2c1-c1ccccc1 [C] | 7.5
NCc1[nH]c2cc(Br)c(Cl)cc2c1-c1ccccc1 [D] | 3
NCc1[nH]c2ccc(Cl)cc2c1-c1ccccc1F [A] | 3
NCc1[nH]c2ccc(Cl)cc2c1-c1c(F)cccc1F [B] | 7.5

Field: next molecule
Report MIC under test system Trichophyton megninii for NCc1[nH]c2ccc(Cl)cc2c1-c1ccc(Cl)cc1Cl [E] .
3

----------
# reported MIC; entries follow
# System: Candida albicans
# assay.info: In vitro Anti-Candida activity, dilutions in Sabouraud's Dextrose Agar (Table III)
# Assay type: cell-based
# applied.conditions: 48 h, strain Hons, after 48 hours
// units = µg/mL; emit number, no label

In the examples that follow, each entry is paired with its recorded MIC.
molecule | test.target | MIC / µg/mL
NCc1[nH]c2ccc(Cl)cc2c1-c1ccc(Cl)cc1Cl [E] | Candida albicans | 37.5
NCc1[nH]c2ccc(Cl)cc2c1-c1ccccc1 [C] | Candida albicans | 75
NCc1[nH]c2ccc(Cl)cc2c1-c1ccccc1F [A] | Candida albicans | 75
NCc1[nH]c2cc(Br)c(Cl)cc2c1-c1ccccc1 [D] | Candida albicans | 150

For Candida albicans, give the measured MIC of the entry NCc1[nH]c2ccc(Cl)cc2c1-c1c(F)cccc1F [B]
150
